Reference source: PubChem BioAssay (NCI)

System: MOLT-4 leukemia
Measurement protocol: NCI-60 one-dose screen, 48 h (100 = growth as untreated, 0 = no growth, -100 = all killed)
Condition summary: 10 µM unless noted
This is part of a sample that, as a whole, favours compounds with a hit. Of some 83,000 tested, about 20% had one in any assay. Active and inactive are the calls of the source. Rule for the calls: active = growth percent below 10; inactive = the rest.
Endpoint name: growth

The measured growth associated with Clc1ccc(/C=C/c2cc(N3CCOCC3)c3cc(Cl)c(Cl)cc3n2)cc1 reads 1.45% (active)

The measured growth associated with N#Cc1c(C(F)(F)F)cc(Nc2ccc3nc(NCCN4CCCC4)oc3c2)n2c1nc1ccccc12 reads 56.7% (inactive)

The measured growth associated with O=C(NC1CCNCC1)c1[nH]ncc1NC(=O)c1c(Cl)cccc1Cl reads 5.67% (active)

The measured growth associated with C=CCN(/C=C1/C(=O)O[C@H](COC)[C@@]2(C)C1=C(O)C(=O)C1=C2[C@H](OC(C)=O)C[C@]2(C)C(=O)CC[C@@H]12)CC=C reads -2.31% (active)

The measured growth associated with C[C@@H](Oc1cc(-n2cnc3ccc(CN4CCN(C)CC4)cc32)sc1C(N)=O)c1ccccc1C(F)(F)F reads -7.58% (active)

The measured growth associated with CCN1/C(=C/C=C/c2n(-c3ccccc3)c3ccc(-c4nc5ccccc5s4)cc3[n+]2CC)N(c2ccccc2)c2ccc(-c3nc4ccccc4s3)cc21 reads 16.5% (inactive)

The measured growth associated with CC(C)Nc1cc(-c2c[nH]c(C(=O)N[C@H](CO)c3cccc(Cl)c3)c2)c(Cl)cn1 reads 12.6% (inactive)

The measured growth associated with O=C(NO)c1ccc(Cn2c(=O)n(-c3ccccc3F)c(=O)c3ccccc32)cc1 reads -8.31% (active)

The measured growth associated with O=C(Cn1cncn1)Nc1ccc(-c2nc3ccccc3s2)cc1 reads 91.9% (inactive)

The measured growth associated with CC1=CC2c3oc(-c4ccccc4)c(C(=O)c4ccccc4)c3CNC2C=C1 (stereo not drawn) reads 101% (inactive)

The measured growth associated with COc1cc(Nc2c(C#N)cnc3cc(OCCCN4CCN(C)CC4)c(OC)cc23)c(Cl)cc1Cl reads 33.3% (inactive)

The measured growth associated with O=C1CC(c2cccc(F)c2)c2c(n[nH]c2-c2ccc(Cl)cc2)N1 (stereo not drawn) reads 88% (inactive)

The measured growth associated with Cn1cc(-c2[nH]c3cc(NC(=O)[C@H](N)C4CCCCC4)cc4c3c2C=NNC4=O)cn1 reads -36.8% (active)

The measured growth associated with Cc1ncc(-c2ccnc(Nc3ccc(S(C)(=O)=O)cc3)n2)n1C(C)C reads -32.6% (active)

The measured growth associated with Clc1ccc2c(NCCCNCc3ccc4c(c3)OCO4)ccnc2c1 reads 25.1% (inactive)

The measured growth associated with O=C(N/N=C/c1ccc(Cl)cc1)c1cc(-c2cc3ccccc3o2)nn1-c1ccccc1 reads 78% (inactive)

The measured growth associated with Cc1nc(NC(=O)N2CCC[C@H]2C(N)=O)sc1-c1ccnc(C(C)(C)C(F)(F)F)c1 reads 8.66% (active)

The measured growth associated with Cc1ccc(NC(=O)Nc2ccc(Nc3ncnc4sc5c(c34)CCOC5)cc2)cc1Cl reads 88.9% (inactive)

The measured growth associated with COCc1c(-c2ccc(NC(=O)Nc3cc(C(F)(F)F)ccc3F)c(F)c2)c2c(N)ncnn2c1CN1CCOCC1 reads -5.86% (active)

The measured growth associated with Cn1c(=O)c(F)c(Nc2ccc(I)cc2F)c2c(=O)n(C[C@@H](O)CO)cnc21 reads 73.7% (inactive)

The measured growth associated with CC[C@@H]1C(=O)N(C)c2cnc(Nc3ccc(C(=O)NC4CCC(N5CCN(CC6CC6)CC5)CC4)cc3OC)nc2N1C(C)C (stereo partly drawn) reads -19.6% (active)

The measured growth associated with O=C1C=CC2(NN=C(c3ccccc3)N2c2cccc(Cl)c2)C(Cl)=C1 (stereo not drawn) reads 39.2% (inactive)

The measured growth associated with Cc1nc(N)sc1-c1ccnc(Nc2ccc(N3CCOCC3)cc2)n1 reads 13.8% (inactive)

The measured growth associated with O=C(c1ccc(/C=C/c2n[nH]c3ccccc23)cc1)N1CCNCC1 reads 19.9% (inactive)

The measured growth associated with NC(=O)N1N=C(c2ccc(Cl)cc2)CC1c1cn(-c2ccccc2)nc1-c1ccc(Cl)cc1 (stereo not drawn) reads 62.9% (inactive)

The measured growth associated with CCNC(=O)Nc1nc2ccc(Oc3ccnc(C(=O)NC)c3)cc2s1 reads 47.9% (inactive)

The measured growth associated with C=C1C(=O)O[C@H]2[C@H]1CC/C(Cn1cc(-c3cc(C)c(C)cc3C)nn1)=C\CC[C@@]1(C)O[C@@H]21 reads -19.2% (active)

The measured growth associated with CC(C)CC(=O)Nc1n[nH]c2c1CN(C(=O)C1CCN(C)CC1)C2(C)C reads 4.42% (active)

The measured growth associated with Cc1ccccc1N1C(c2ccccc2)=NNC12C=CC(=O)C=C2Cl (stereo not drawn) reads 94.7% (inactive)

The measured growth associated with Cc1csc(-c2nnc(Nc3ccc(Oc4ncccc4-c4ccnc(N)n4)cc3)c3ccccc23)c1 reads 32.3% (inactive)

The measured growth associated with COc1ncc(-c2ccc3nccc(-c4ccnnc4)c3c2)cc1NS(=O)(=O)c1ccc(F)cc1F reads -11.9% (active)

The measured growth associated with Cc1cc(O)cc(-c2c(-c3ccnc(-c4cccnc4)c3)cnn2C)c1 reads 54.8% (inactive)

The measured growth associated with N#Cc1ccc(-n2nnc3ccccc32)cc1C#N reads 93.3% (inactive)

The measured growth associated with Fc1ccc(NCc2cn(-c3ccccc3)nc2-c2ccc(OCc3ccccc3)cc2)cc1Cl reads 85.8% (inactive)

The measured growth associated with O=C1NC(=O)C(c2cnc3ccccn23)=C1c1cn2c3c(cc(F)cc13)CN(C(=O)N1CCCCC1)CC2 reads 12.1% (inactive)

The measured growth associated with C=CCn1c(=O)c2cnc(Nc3ccc(N4CCN(C)CC4)cc3)nc2n1-c1cccc(C(C)(C)O)n1 reads 3.84% (active)

The measured growth associated with CCCCn1c(C)nc2ccc(Nc3nc(N4CCN(C)CC4)nc4nc[nH]c34)cc21 reads 87.1% (inactive)

The measured growth associated with O=C(Nc1ccc(N=Nc2ccccc2)cc1)c1cccc2ccccc12 reads 37.2% (inactive)
